- TEST_DESCRIPTION: Phase 1 open-label parallel-group PK study of IV vasopressin in healthy volunteers by LNPEP rs4869317 genotype
- Format: in vivo, human
- SETTINGS: both sexes, human, plasma, iv, 200 μU/kg/min, TT genotype healthy volunteers (12 subjects), 200 μU/kg/min continuous IV infusion for 60 minutes; read-out: CL (Median)
MEASURE: clearance (mL/min/kg)

- COMPOUND: "NC(=O)CC[C@@H]1NC(=O)[C@H](Cc2ccccc2)NC(=O)[C@H](Cc2ccc(O)cc2)NC(=O)[C@@H](N)CSSC[C@@H](C(=O)N2CCC[C@H]2C(=O)N[C@@H](CCCN=C(N)N)C(=O)NCC(N)=O)NC(=O)[C@H](CC(N)=O)NC1=O [vasopressin]"
  RESULT_NUMBER: 14

###

- TEST_DESCRIPTION: Phase 1 open-label parallel-group PK study of IV vasopressin in healthy volunteers by LNPEP rs4869317 genotype
- Assay type: in vivo, human
- SETTINGS: both sexes, human, plasma, iv, 200 μU/kg/min, AA/AT rs4869317 genotype (n = 12), 60 minute continuous IV infusion 200 μU/kg/min; read-out: Total Plasma Clearance (CL) Value

- CHEMICAL_STRING: "NC(=O)CC[C@@H]1NC(=O)[C@H](Cc2ccccc2)NC(=O)[C@H](Cc2ccc(O)cc2)NC(=O)[C@@H](N)CSSC[C@@H](C(=O)N2CCC[C@H]2C(=O)N[C@@H](CCCN=C(N)N)C(=O)NCC(N)=O)NC(=O)[C@H](CC(N)=O)NC1=O"
  UNIT: "mL/min/kg"
  clearance: 17.4

###

- TEST_DESCRIPTION: Table 1 overview of parameters, infusion rate 0.03 units/minute, TT vs AA/AT genotype patients
- Format: in vivo, human
- SETTINGS: human, in vivo, intravenous, 0.03 units/minute, read-out: Clearance in TT genotype patients

- COMPOUND: "NC(=O)CC[C@@H]1NC(=O)[C@H](Cc2ccccc2)NC(=O)[C@H](Cc2ccc(O)cc2)NC(=O)[C@@H](N)CSSC[C@@H](C(=O)N2CCC[C@H]2C(=O)N[C@@H](CCCN=C(N)N)C(=O)NCC(N)=O)NC(=O)[C@H](CC(N)=O)NC1=O [vasopressin]"
  clearance [mL/min/kg]: 19.7

###

- TEST_DESCRIPTION: Table 1 overview of parameters, infusion rate 0.03 units/minute, TT vs AA/AT genotype patients
- Assay type: in vivo, human
- SETTINGS: human, in vivo, intravenous, 0.03 units/minute, read-out: Clearance in AA/AT genotype patients

- CHEMICAL_STRING: "NC(=O)CC[C@@H]1NC(=O)[C@H](Cc2ccccc2)NC(=O)[C@H](Cc2ccc(O)cc2)NC(=O)[C@@H](N)CSSC[C@@H](C(=O)N2CCC[C@H]2C(=O)N[C@@H](CCCN=C(N)N)C(=O)NCC(N)=O)NC(=O)[C@H](CC(N)=O)NC1=O"
  clearance, mL/min/kg: 28.7

###

- TEST_DESCRIPTION: Table 1 overview of parameters, infusion rate 0.03 units/minute, TT vs AA/AT genotype patients
- Type: in vivo, human
- SETTINGS: human, in vivo, iv, 0.03 units/minute, read-out: Concentration at steady state in AA/AT genotype patients
MEASURE: level at time molar

- CHEMICAL_STRING: "NC(=O)CC[C@@H]1NC(=O)[C@H](Cc2ccccc2)NC(=O)[C@H](Cc2ccc(O)cc2)NC(=O)[C@@H](N)CSSC[C@@H](C(=O)N2CCC[C@H]2C(=O)N[C@@H](CCCN=C(N)N)C(=O)NCC(N)=O)NC(=O)[C@H](CC(N)=O)NC1=O"
  RESULT: "3.17 pM"

These data points were gathered from patent US10920278B1.
